Values compiled from patent US20240383852A1.

Tested on: human Hep G2 cells (ATCC HB-8065)
TEST_DETAILS: Cytotoxicity in Hep G2 cells (CellTiter-Glo)
Assay type: cell-based
CONDITION_DESCRIPTION: Hep G2 cells, 100 μM test article, 24-hour exposure
hey, just use yes (1) if measured % Cell Viability is less than 60%, otherwise no (0)

Look over these answered cases.
1. Cc1ccc(N2CCNCC2)cc1C(=O)N[C@H](C)c1cccc(-c2cnn(C)c2)c1    no (0)
2. COc1ccc([C@@H](C)NC(=O)c2cc(N3CCN(C)CC3)ccc2C)cc1Br    no (0)
3. Cc1ccc(N2CCN(C)CC2)cc1C(=O)N[C@H](C)c1cccc(-c2ccc(=O)[nH]c2)c1    no (0)
4. Cc1ccc(N2CCN(C)CC2)cc1C(=O)N[C@H](C)c1cc(-c2ccccc2)cs1    yes (1)
5. COc1ccc([C@@H](C)NC(=O)c2cc(N3CCN(C)CC3)ccc2C)cc1-c1ccsc1    yes (1)

Would you kindly verify if % Cell Viability of `Cc1ccc(N2CCN(CCC(=O)O)CC2)cc1C(=O)N[C@H](C)c1cccc2ccccc12` is strictly less than 60%?
no (0)

Hello, is % Cell Viability of the following molecule strictly smaller than 60%? `Cc1ccc(N2CCN(C)CC2)cc1C(=O)N[C@H](C)c1cccc(-c2cccc(CO)c2)c1`
no (0)

Determine if `COc1cc(OC)c([C@@H](C)NC(=O)c2cc(N3CCN(C)CC3)ccc2C)cc1-c1ccccc1` shows % Cell Viability strictly lower than 60%.
yes (1)

====

TESTED_TARGET: SARS-CoV-2 PLpro (Severe acute respiratory syndrome coronavirus 2, UniProt P0DTD1)
Construct: containing 60 nM papain-like protease
TEST_DETAILS: biochemical
CONDITION_DESCRIPTION: 60 nM papain-like protease, 50 μM Z-RLRGG-AMC, pH 7.5, 37° C.; read-out: SARS-CoV-2 PLpro IC50
Parameter IC50: see the listing below.

Example results:
1) C[C@@H](NC(=O)c1ccnc(N2CC[C@H](N)C2)n1)c1cccc2ccccc12    < 100000 nM
2) COc1cc(-c2cn(C)nc2C)cc([C@@H](C)NC(=O)c2cc(N3CCCNCC3)ccc2C)c1    < 2000 nM

Entry `Cc1ccc(N2CCN(C)CC2)cc1C(=O)N[C@H](C)c1cc(-c2ccccc2)cs1` : IC50 on SARS-CoV-2 PLpro (Severe acute respiratory syndrome coronavirus 2, UniProt P0DTD1) = < 2000 nM

With SARS-CoV-2 PLpro (Severe acute respiratory syndrome coronavirus 2, UniProt P0DTD1) as the test system, `Cc1ccc(N2CCN(C)CC2)cc1C(=O)N[C@H](C)c1cccc(-c2ccc(CO)s2)c1` showed IC50 of < 2000 nM

====

TESTED_TARGET: SARS-CoV-2 PLpro (Severe acute respiratory syndrome coronavirus 2)
Construct: containing 60 nM papain-like protease
TEST_DETAILS: biochemical
CONDITION_DESCRIPTION: 60 nM papain-like protease, 50 μM Z-RLRGG-AMC, pH 7.5, 37° C.; read-out: SARS-CoV-2 PLpro IC50
MEASUREMENT_NAME: IC50

1) Cc1ccc(N2CCN(C)CC2)cc1C(=O)N[C@H](C)c1cncc(-c2cnn(C)c2)c1 [Example 224]    < 5 µM
2) C[C@@H](NC(=O)c1cc(-c2ccc(CN3CCN(C)CC3)cc2)ccc1Cl)c1cccc2ccccc12 [Example 145]    < 100 µM
3) COc1ccc([C@@H](C)NC(=O)c2cc(N3CCN(C)CC3)ccc2C)cc1-c1csc(C(=O)N(C)C)c1 [Example 285]    < 2 µM
4) Cc1ccc(N2CC3(CNC3)C2)cc1C(=O)N[C@H](C)c1cccc2ccccc12 [Example 17]    < 5 µM
5) Cc1ccc(N2CCN(C)CC2)cc1C(=O)N[C@H](C)c1cccc(-c2ccc(C(O)CO)cc2)c1 (some centres unmarked) [Example 70]    < 2 µM
6) COCCNC(=O)c1cccc(-c2cccc([C@@H](C)NC(=O)c3cc(N4CCN(C)CC4)ccc3C)c2)c1 [Example 87]    < 2 µM

Fill in: SARS-CoV-2 PLpro (Severe acute respiratory syndrome coronavirus 2) IC50 for Cc1ccc(N2CCN(C)CC2)cc1C(=O)N[C@H](C)c1cccc(-c2nccs2)c1 [Example 65] = < 2 µM

Param item: Cc1ccc(N2CCN(C)CC2)cc1C(=O)N[C@H](C)c1cccc(N2CC(CO)OC2=O)c1 (some centres unmarked) [Example 107] ; param system: SARS-CoV-2 PLpro (Severe acute respiratory syndrome coronavirus 2); output IC50: < 5 µM
